assay: Solid stability test (4 weeks of storage at 80° C., closed system; HPLC); type: physicochemical; conditions: after 4 weeks at 80° C. versus before storage
Recorded Change (chemical purity) for the following molecules
Just the number please, in %, no unit attached.

# MOLECULE, Change (chemical purity), %
measured = [
    ("C#Cc1c(-c2cnc3ccccc3c2)c2c(N)ncnc2n1C12CCC(NC(=O)c3cnc(C)cn3)(CC1)C2 [Type I crystal of Compound (1) with citric acid]", "−0.72"),
    ("C#Cc1c(-c2cnc3ccccc3c2)c2c(N)ncnc2n1C12CCC(NC(=O)c3cnc(C)cn3)(CC1)C2 [Type I crystal of Compound (1) with phosphoric acid]", "−0.40"),
]

Req: What value of measured Change (chemical purity) is listed for C#Cc1c(-c2cnc3ccccc3c2)c2c(N)ncnc2n1C12CCC(NC(=O)c3cnc(C)cn3)(CC1)C2 [Type I crystal of Compound (1) with sorbic acid] ?
Resp: −0.02

Req: Would you kindly repeat that for C#Cc1c(-c2cnc3ccccc3c2)c2c(N)ncnc2n1C12CCC(NC(=O)c3cnc(C)cn3)(CC1)C2 [Type VIII crystal in free form] ?
Resp: −0.19

Req: Would you kindly repeat that for C#Cc1c(-c2cnc3ccccc3c2)c2c(N)ncnc2n1C12CCC(NC(=O)c3cnc(C)cn3)(CC1)C2 [Type IV crystal of Compound (1) with citric acid] ?
Resp: −6.42

* * *

Recorded Cmax for the following compounds
test: Plasma concentration determination test after oral administration; type: in vivo; details: male beagle dogs, gelatin capsule, 20 mg/kg in terms of free form, hypochlorhydria conditions, three dogs
Answer by giving the amount and then stating its unit.

# COMPOUND, Cmax
records = [
    ("C#Cc1c(-c2cnc3ccccc3c2)c2c(N)ncnc2n1C12CCC(NC(=O)c3cnc(C)cn3)(CC1)C2 [Type III crystal of Compound (1) with succinic acid]", "2240 nM"),
]

Req: What value of measured Cmax is listed for C#Cc1c(-c2cnc3ccccc3c2)c2c(N)ncnc2n1C12CCC(NC(=O)c3cnc(C)cn3)(CC1)C2 [Type I crystal of Compound (1) with sorbic acid] ?
Resp: 1680 nM
